# TARGET_OR_TEST_SYSTEM: T1, hFcRn on hFcRn-expressing HEK293 cells (human, UniProt P55899 24-365; P61769 21-119)
# T1 construct: whole, on cells; also called hFcRn HEK293
# T1 sequence (P55899 24-365 limits assumed, chain 1 of 2): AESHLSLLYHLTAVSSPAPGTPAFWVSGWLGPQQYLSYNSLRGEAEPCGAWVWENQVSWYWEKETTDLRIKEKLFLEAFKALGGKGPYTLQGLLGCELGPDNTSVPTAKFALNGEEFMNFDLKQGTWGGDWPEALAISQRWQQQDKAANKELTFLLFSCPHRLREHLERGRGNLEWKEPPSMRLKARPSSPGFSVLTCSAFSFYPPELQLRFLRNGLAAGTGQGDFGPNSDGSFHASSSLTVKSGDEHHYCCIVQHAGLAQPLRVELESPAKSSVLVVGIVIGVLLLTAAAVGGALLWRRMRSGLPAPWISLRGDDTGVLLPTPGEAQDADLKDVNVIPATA
# T1 sequence (P61769 21-119 limits assumed, chain 2 of 2): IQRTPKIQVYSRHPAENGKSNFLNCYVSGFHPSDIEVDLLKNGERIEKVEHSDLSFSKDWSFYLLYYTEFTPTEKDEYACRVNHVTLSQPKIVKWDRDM
# MEASUREMENT_DESCRIPTION: FACS on hFcRn HEK293 cells, pH 6.0; head prints 'FACS binding (EC50, nM)', taken as blocking of competitor Alexa488-hIgG1 (Example 4.5)
MEASURED_ENDPOINT: pEC50
Give bare numbers, as −log10 of the molar value.

HL161AN variant No. 5 (LC:N25S, HC:Q82E) (antibody, human IgG1, V domains shown, Variable domains only) VL: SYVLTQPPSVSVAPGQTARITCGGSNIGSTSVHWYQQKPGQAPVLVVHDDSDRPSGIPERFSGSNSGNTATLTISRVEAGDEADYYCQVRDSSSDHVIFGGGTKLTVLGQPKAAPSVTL VH: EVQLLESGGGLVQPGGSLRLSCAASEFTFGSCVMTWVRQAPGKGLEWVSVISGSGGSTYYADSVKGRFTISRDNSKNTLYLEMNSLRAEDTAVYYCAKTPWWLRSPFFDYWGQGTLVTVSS; 8.84
HL161AN variant No. 9 (LC:N25S, HC:C32Y Q82S) (antibody, human IgG1, V domains shown, Variable domains only) VL: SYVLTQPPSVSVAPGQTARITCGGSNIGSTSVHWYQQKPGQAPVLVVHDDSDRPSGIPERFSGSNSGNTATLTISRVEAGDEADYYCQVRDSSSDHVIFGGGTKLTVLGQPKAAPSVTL VH: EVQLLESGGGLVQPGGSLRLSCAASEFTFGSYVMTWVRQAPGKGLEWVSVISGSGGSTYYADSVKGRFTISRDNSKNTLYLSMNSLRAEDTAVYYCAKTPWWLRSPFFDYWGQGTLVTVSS; 8.84
HL161AN variant No. 12 (LC:N25Q, HC:C32S) (antibody, V domains shown, also called HL161ANQ; #12 (HL161ANQ)) VL: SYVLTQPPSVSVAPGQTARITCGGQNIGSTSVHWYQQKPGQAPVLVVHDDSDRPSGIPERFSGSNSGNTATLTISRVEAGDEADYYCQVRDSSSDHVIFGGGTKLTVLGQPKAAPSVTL VH: EVQLLESGGGLVQPGGSLRLSCAASEFTFGSSVMTWVRQAPGKGLEWVSVISGSGGSTYYADSVKGRFTISRDNSKNTLYLQMNSLRAEDTAVYYCAKTPWWLRSPFFDYWGQGTLVTVSS; 8.78

Okay, here is my list. What is pEC50 for each of these?
1. HL161AN variant No. 7 (LC:N25S, HC:C32S Q82T) (antibody, human IgG1, V domains shown, Variable domains only) VL: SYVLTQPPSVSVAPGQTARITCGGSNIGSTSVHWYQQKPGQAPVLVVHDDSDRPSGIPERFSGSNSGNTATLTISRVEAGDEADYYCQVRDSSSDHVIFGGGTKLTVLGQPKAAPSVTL VH: EVQLLESGGGLVQPGGSLRLSCAASEFTFGSSVMTWVRQAPGKGLEWVSVISGSGGSTYYADSVKGRFTISRDNSKNTLYLTMNSLRAEDTAVYYCAKTPWWLRSPFFDYWGQGTLVTVSS
2. HL161AN variant No. 1 (LC:N25S, HC:C32S) (antibody, V domains shown, also called HL161ANS; #1 (HL161ANS)) VL: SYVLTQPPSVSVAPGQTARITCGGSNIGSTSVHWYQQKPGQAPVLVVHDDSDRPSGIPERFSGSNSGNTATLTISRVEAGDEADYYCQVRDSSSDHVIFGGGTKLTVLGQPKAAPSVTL VH: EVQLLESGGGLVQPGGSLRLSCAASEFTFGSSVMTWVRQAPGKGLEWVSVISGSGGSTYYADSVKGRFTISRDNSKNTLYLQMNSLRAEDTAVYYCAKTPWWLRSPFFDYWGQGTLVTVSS
3. HL161AN (antibody, human IgG1, V domains shown, also called HL161AN RS) VL: SYVLTQPPSVSVAPGQTARITCGGNNIGSTSVHWYQQKPGQAPVLVVHDDSDRPSGIPERFSGSNSGNTATLTISRVEAGDEADYYCQVRDSSSDHVIFGGGTKLTVLGQPKAAPSVTL VH: EVQLLESGGGLVQPGGSLRLSCAASEFTFGSCVMTWVRQAPGKGLEWVSVISGSGGSTYYADSVKGRFTISRDNSKNTLYLQMNSLRAEDTAVYYCAKTPWWLRSPFFDYWGQGTLVTVSS

8.89
8.84
8.74
